# TGT: Angiopoietin-1 receptor (Homo sapiens)
# REPORTED_CONDITIONS: at 0.1 µM
# Description: GSK_PKIS: TIE2 mean inhibition at 0.1 uM [Nanosyn]
QUANTITY_KIND: inhibition (%)
Give the value, in units of %, as a plain number.

Please review the following examples before continuing.
Fc1ccc(-c2ncn(CCCN3CCOCC3)c2-c2ccncc2)cc1    1.37
Cc1ccc(NC(=O)c2ccoc2)cc1-c1ccc(C(=O)NCC2CC2)cc1    1.56

Enquiry: // lookup inhibition for COc1cc(Nc2ncc3c(C)nc(-c4cccc(Oc5ccccc5)c4)n3n2)cc(OC)c1OC
Return: 1.33

Enquiry: What do you have for O=C(Nc1ccc(Oc2ccc3[nH]c(NC(=O)c4ccccc4)nc3c2)cc1)Nc1cc(C(F)(F)F)ccc1F ?
Return: 9.81

Enquiry: What do you have for COC(=O)Nc1nc2ccc(Sc3ccc(NC(=O)Nc4cc(C(F)(F)F)ccc4F)cc3)cc2[nH]1 ?
Return: 21.1

Enquiry: What do you have for COc1cc(Nc2ncc3c(C)nc(-c4cccc(C(F)(F)F)c4)n3n2)cc(OC)c1OC ?
Return: 2.15

Enquiry: What do you have for FC(F)(F)c1cccc(Nc2nccc(-c3cnn4nc(-c5ccccc5)ccc34)n2)c1 ?
Return: 0.12

Enquiry: What do you have for O=C(Nc1n[nH]c2cc(-c3cc(F)ccc3F)ccc12)C1CC1 ?
Return: 3.35

----------
# TGT: Tyrosine-protein kinase Lyn (Homo sapiens)
# REPORTED_CONDITIONS: at 0.1 µM
# Description: GSK_PKIS: LYN A (splice variant) mean inhibition at 0.1 uM [Nanosyn]
List of inhibition values.
Give the value, in units of %, as a plain number.

Please review the following examples before continuing.
CNC(=O)c1cncc(/C=C/c2c(C)cccc2C)c1    22.1
CCc1cccc(CC)c1/C=C/c1cncc(C(=O)NC)c1    3.99

Enquiry: // lookup inhibition for Clc1ccc(CNc2nccc(-c3cnn4ncccc34)n2)cc1
Return: 3.2

Enquiry: What do you have for CS(=O)(=O)CCNCc1ccc(-c2ccc3ncnc(Nc4ccc(OCc5ccccc5)c(Br)c4)c3c2)o1 ?
Return: 4.6

Enquiry: What do you have for Cc1ccc(C(=O)NC2CCC2)cc1-c1ccc(C(=O)NCC2CC2)cc1 ?
Return: 3.48

Enquiry: What do you have for Cc1ccc(C(=O)NC(C)C)cc1-c1ccc(C(=O)NCC2CC2)cc1 ?
Return: -2.52

Enquiry: What do you have for NC(=O)c1ccc(Oc2nccc(-c3c(-c4ccc(F)cc4)ncn3C3CCNCC3)n2)cc1 ?
Return: 4.17

Enquiry: What do you have for Cc1ccc(NC(=O)c2ccoc2)cc1-c1ccc(C(=O)NCC2CC2)cc1 ?
Return: 3.73

Enquiry: What do you have for C[C@@H](Oc1cc(-n2cnc3ccc(OCC4CCN(C)CC4)cc32)sc1C(N)=O)c1ccccc1Cl ?
Return: 5.95

----------
List of inhibition values.
# TGT: Protein kinase C eta type (Homo sapiens)
# REPORTED_CONDITIONS: at 0.1 µM
Give the value, in units of %, as a plain number.

Please review the following examples before continuing.
NCc1ccc(-n2c(-c3nonc3N)nc3cnccc32)cc1    47.1
O=C1Nc2ccc(I)cc2C1=Cc1cc(Br)c(O)c(Br)c1    5.57
Fc1ccc(-c2ncn(CCCN3CCOCC3)c2-c2ccncc2)cc1    -2.71

Next compound, inhibition to be filled in.
Enquiry: Request - read-out inhibition | tested on Protein kinase C eta type (Homo sapiens) | compound N#Cc1ccc(Oc2nccc(-c3c(-c4ccc(F)cc4)ncn3C3CCNCC3)n2)cc1;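 note: values are the mean percent inhibition of PKC-eta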
Return: 6.05
